# METHOD DESCRIPTION: MTX/GLPG3970 DDI study: plasma pharmacokinetics
# Type: in vivo, human
# EXPERIMENTAL CONTEXT: human, plasma, oral, C max, geometric LS mean (95% CI), GLPG3970 350 mg + MTX 7.5 mg, Day 5 (n = 14)
REPORTED ENDPOINT: Cmax (µg/mL)
One number for each entry, in µg/mL.

QUERY: Quick one: Cmax for CN(Cc1cnc2nc(N)nc(N)c2n1)c1ccc(C(=O)N[C@@H](CCC(=O)O)C(=O)O)cc1 [MTX, methotrexate, reference compound] ?
RESULT: 0.193

---

Can you tell me AUC(0-inf) for the items I'm about to list?
# METHOD DESCRIPTION: SSZ/GLPG3970 DDI study: plasma pharmacokinetics
# Format: in vivo, human
# EXPERIMENTAL CONTEXT: human, plasma, oral, 1000 mg, AUC0–∞, geometric LS mean (95% CI), SSZ 1,000 mg alone, Day 1 (n = 8)
Numbers only, in ng·h/mL.

State recorded AUC(0-inf) for all listed molecules.
1. O=C(O)c1cc(/N=N/c2ccc(S(=O)(=O)Nc3ccccn3)cc2)ccc1O [SSZ, sulfasalazine, reference compound]
2. Nc1ccc(S(=O)(=O)Nc2ccccn2)cc1 [SPD, sulfapyridine]

RESULT:
[59800, 125000]
